# system.name: wild type GR (full-length) (Homo sapiens)
# Sequence (P04150 whole entry): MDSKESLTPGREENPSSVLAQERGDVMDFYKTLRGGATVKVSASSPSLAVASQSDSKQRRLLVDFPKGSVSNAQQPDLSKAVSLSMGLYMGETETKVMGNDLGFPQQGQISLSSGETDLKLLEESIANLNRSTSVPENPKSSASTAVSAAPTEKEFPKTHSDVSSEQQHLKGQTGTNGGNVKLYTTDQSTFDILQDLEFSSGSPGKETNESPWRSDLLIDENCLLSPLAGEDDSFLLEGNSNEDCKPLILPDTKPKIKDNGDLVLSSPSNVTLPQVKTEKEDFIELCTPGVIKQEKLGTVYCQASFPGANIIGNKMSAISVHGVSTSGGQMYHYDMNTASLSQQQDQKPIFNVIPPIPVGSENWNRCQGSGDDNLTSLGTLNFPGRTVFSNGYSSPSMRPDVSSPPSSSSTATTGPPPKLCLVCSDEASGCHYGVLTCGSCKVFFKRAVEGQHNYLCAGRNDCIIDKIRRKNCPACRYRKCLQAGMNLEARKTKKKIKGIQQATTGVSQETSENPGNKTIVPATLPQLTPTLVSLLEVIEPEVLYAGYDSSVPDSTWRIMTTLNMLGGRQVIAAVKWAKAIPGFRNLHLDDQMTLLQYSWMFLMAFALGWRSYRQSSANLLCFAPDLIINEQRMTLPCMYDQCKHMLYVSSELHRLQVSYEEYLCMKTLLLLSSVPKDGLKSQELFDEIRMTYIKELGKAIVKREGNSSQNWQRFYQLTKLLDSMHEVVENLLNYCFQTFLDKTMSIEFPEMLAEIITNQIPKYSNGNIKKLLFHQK
# assay.procedure: MMTV luciferase reporter assay in Cos-7 cells
# Assay type: cell-based
# condition.summary: summary of FIG. 5 dose-response; read-out: affinity to GR (shown in FIG. 5)
measured.quantity: EC50

[[record]]
structure_smiles_string = "C[C@]12C[C@H](O)[C@H]3[C@@H](CCC4=CC(=O)CC[C@@]43C)[C@@H]1CC[C@@H]2C(=O)CO"
system_name = "wild type GR (full-length) (Homo sapiens)"
observed_result = "~10 nM"


----------
# system.name: MR (Homo sapiens, UniProt P08235)
# Construct: receptor expression vector (pRS vector) encoding full-length GR and MR respectively (ATCC); host or cells: Cos-7
# Sequence (P08235 whole entry, looked up): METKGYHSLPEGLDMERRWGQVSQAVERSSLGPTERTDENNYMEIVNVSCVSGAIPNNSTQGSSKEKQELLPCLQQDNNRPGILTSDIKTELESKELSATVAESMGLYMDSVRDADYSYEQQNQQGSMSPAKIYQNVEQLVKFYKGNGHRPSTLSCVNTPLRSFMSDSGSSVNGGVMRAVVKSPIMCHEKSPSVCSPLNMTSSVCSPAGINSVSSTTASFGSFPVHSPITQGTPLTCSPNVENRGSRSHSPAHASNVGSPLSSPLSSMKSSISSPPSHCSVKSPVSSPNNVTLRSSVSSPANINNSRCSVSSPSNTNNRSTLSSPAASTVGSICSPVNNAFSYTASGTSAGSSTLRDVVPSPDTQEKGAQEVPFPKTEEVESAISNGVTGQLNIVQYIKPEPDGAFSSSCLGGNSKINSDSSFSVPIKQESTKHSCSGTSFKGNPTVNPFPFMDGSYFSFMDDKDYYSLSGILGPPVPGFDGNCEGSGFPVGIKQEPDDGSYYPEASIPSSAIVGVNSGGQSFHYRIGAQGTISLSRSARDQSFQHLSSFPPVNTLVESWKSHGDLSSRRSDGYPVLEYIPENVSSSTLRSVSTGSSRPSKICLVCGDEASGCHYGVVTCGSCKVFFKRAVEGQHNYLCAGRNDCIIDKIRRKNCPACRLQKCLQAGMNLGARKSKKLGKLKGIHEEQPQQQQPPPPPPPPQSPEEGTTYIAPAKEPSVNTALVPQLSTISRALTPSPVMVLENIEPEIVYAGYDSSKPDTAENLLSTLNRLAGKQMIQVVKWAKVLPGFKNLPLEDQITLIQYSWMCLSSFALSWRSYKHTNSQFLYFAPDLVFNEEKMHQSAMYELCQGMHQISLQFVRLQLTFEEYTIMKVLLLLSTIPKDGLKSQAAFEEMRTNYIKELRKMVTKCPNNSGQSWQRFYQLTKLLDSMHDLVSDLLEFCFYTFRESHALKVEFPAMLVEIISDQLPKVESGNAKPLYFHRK
# assay.procedure: IC50 (µM)
pIC50: −log10 of the molar value. No end group written: not given here.
measured.quantity: pIC50

[[record]]
ordered_residues = "QEKHRILHKLLQNGN [SRC3-2]"
measured_quantity = "pIC50"
observed_result = 5.34

[[record]]
ordered_residues = "KENNALLRYLLDRDD [SRC3-3]"
measured_quantity = "pIC50"
observed_result = 5.85


These data points were gathered from patent US20070111265A1.
